# Tested on: EPO
# assay method text: Determination of EPO inhibition rate by compounds using Hep3B cells (EPO ELISA of culture supernatant)
# Assay type: cell-based
# reported conditions: Homo sapiens, EPO induced with 30 μM (6′-hydroxy-3′-(4-methoxyphenyl)-8′-oxo-8′H-spiro[cyclopentane-1,5′-indolizine]-7′-carbonyl)glycine or its analogues, test compound 48 hours
measurement name: pIC50
Note on pIC50: it is the negative log10 of concentration, concentration in mol/L.

Fc1c(Br)ccc2c1C=CCC21CN2C=C(C(F)(F)F)C=C(OC(F)F)C2=N1 (stereo not drawn) [Example 12]
8.97

Recall the recorded pIC50 for CC1=CCC2(CN3C=C(C(F)(F)F)C=C(OC(F)F)C3=N2)c2ccnc(Cl)c21 (stereo not drawn) [Example 6] with EPO and state it.
6.74

Find pIC50 (EPO) for the entry Fc1cccc2c1C=CCC21CN2C=C(C(F)(F)F)C=C(OC(F)F)C2=N1 (racemic) [Example 16]
8.15

Form: Entry = FC1=Cc2c(ccnc2Cl)C2(C1)CN1C=C(C(F)(F)F)C=C(OC(F)F)C1=N2 (racemic) [Example 10] | System = EPO | pIC50 = ____
7.57

Notebook: pull reported pIC50 for EPO, entry Fc1c(Br)ccc2c1C(Cl)=CCC21CN2C=C(C(F)(F)F)C=C(OC(F)F)C2=N1 (stereo not drawn) [Example 14]
8.39

Requested read-out pIC50, target or system EPO, entry FC1=CC[C@]2(CN3C=C(C(F)(F)F)C=C(OC(F)F)C3=N2)c2cccc(F)c21 (single isomer, unassigned) [Example 15-B]
6.96

API: value(readout=pIC50, system=EPO) for record Fc1cccc2c1C(I)=CCC21CN2C=C(C(F)(F)F)C=C(OC(F)F)C2=N1 (stereo not drawn) [Example 19]
6.52

Lab note: need pIC50 for FC(F)OC1=CC(C(F)(F)F)=CN2CC3(CC=Cc4cnccc43)N=C12 (stereo not drawn) [Example 20] on EPO, anyone have it?
6.09

Give pIC50 (EPO) of the following compound: FC1=CC[C@@]2(CN3C=C(C(F)(F)F)C=C(OC(F)F)C3=N2)c2ccnc(Cl)c21 (single isomer, unassigned) [Example 1-A]
7.75

Identify the measured pIC50 of O=[N+]([O-])c1c(Nc2cc(F)cc(Cl)c2)ccc2nonc12 [positive control compound, reference compound] for EPO.
6.30

Reported pIC50 for EPO, given Fc1cccc2c1C=CC[C@@]21CN2C=C(C(F)(F)F)C=C(OC(F)F)C2=N1 (single isomer, unassigned) [Example 16-A] ?
8.19

# value lookup — system EPO, readout pIC50, item Cc1nccc2c1C=CCC21CN2C=C(C(F)(F)F)C=C(OC(F)F)C2=N1 (stereo not drawn) [Example 17]
6.15

Hello, I am looking for reported pIC50 with EPO for FC1=CCC2(CN3C=C(C(F)(F)F)C=C(OC(F)F)C3=N2)c2ccnc(Cl)c21 (racemic) [Example 1] . Could you help?
7.54

Fill in the recorded pIC50 for this compound, with EPO as test system: FC(F)OC1=CC(C(F)(F)F)=CN2C[C@@]3(CC=Cc4c3ccnc4Cl)N=C12 (single isomer, unassigned) [Example 2-B]
7.73

What reported pIC50 corresponds to FC1=CCC2(CN3C=C(C(F)(F)F)C=C(OC(F)F)C3=N2)c2ccc(Br)c(F)c21 (stereo not drawn) [Example 11] on EPO?
7.91
